B1: library; a variant is named by its letters at X, in order (parent)
chain: MNIQIGELAKRTACPVVTIRFYEQEGLLPPPGRSRGNFRLYGEEHVERLQFIRHCRSLDMPLSDVRTLLSYRKRPDQDCGEVXMLLDEHIRQVESRIGALLELKHHLVELREACSGARPAQSCGILQXLSXCVCXTRGTTAHXSD

- Variants of: B1
- assay-method-text: sfGFP reporter fluorescence (15 h) (µM FITC); higher = stronger transcriptional activation
- recorded-conditions: library round: Round 2; ligand: 1 µM Pb
# key: entry, value: sfGFP reporter fluorescence
Format: numeric value only, no unit, no commentary.

Here is how some variants turned out for sfGFP reporter fluorescence.
{"mutant-designation": "NGDAY L110V", "sfGFP reporter fluorescence": 0.0584}
{"mutant-designation": "SADAP", "sfGFP reporter fluorescence": 0.19}
{"mutant-designation": "NHDDA E109L", "sfGFP reporter fluorescence": 0.0809}
{"mutant-designation": "NGDAP D64T Q127G", "sfGFP reporter fluorescence": 0.121}
{"mutant-designation": "NIDAK M84A L107C", "sfGFP reporter fluorescence": 2.6}
{"mutant-designation": "NGCDA L107C", "sfGFP reporter fluorescence": 1.68}
{"mutant-designation": "TGNDP I90L", "sfGFP reporter fluorescence": 0.0573}
{"mutant-designation": "NGAKP L107V", "sfGFP reporter fluorescence": 0.513}

Query: Would you kindly share the measured sfGFP reporter fluorescence for NADPP V108L L129M ?
Response: 0.0681

Query: Can you handle NLDDP G124A L129A next?
Response: 0.0398

Query: Can you handle NGDAL P61N next?
Response: 0.235

Query: Can you handle NGDAP E109D G124A next?
Response: 0.0745

Query: Can you handle NMDDP M60L P61N K104V L107C next?
Response: 1.83
